Where a name gives a salt, the structure may show the parent alone.
ENDPOINT_LABEL: viability (%)
Could you give me the number in %? Just the number is fine.

Entry C=C1[C@H](CO)[C@@H](O)C[C@@H]1n1cnc2c(=O)[nH]c(N)nc21 [Entecavir hydrate] , system HCT116 (p53+) (Colorectal Carcinoma): what viability was measured? 99.9

Entry CC(=O)Oc1ccccc1C(=O)Nc1ncc([N+](=O)[O-])s1 [Nitazoxanide (Alinia, Annita)] , system HCT116 (p53+) (Colorectal Carcinoma): what viability was measured? 98.4

Entry CN(C)C(=O)C(CCN1CCC(O)(c2ccc(Cl)cc2)CC1)(c1ccccc1)c1ccccc1 [Loperamide hydrochloride] , system HCT116 (p53+) (Colorectal Carcinoma): what viability was measured? 47.3

Entry Clc1ccc(COC(Cn2ccnc2)c2ccc(Cl)cc2Cl)c(Cl)c1 (centres unmarked) [Miconazole nitrate] , system HCT116 (p53+) (Colorectal Carcinoma): what viability was measured? 122

Entry CCc1cc2c(cc1CC)CC(NC[C@H](O)c1ccc(O)c3[nH]c(=O)ccc13)C2 [Indacaterol Maleate] , system HCT116 (p53+) (Colorectal Carcinoma): what viability was measured? 91.9

Entry Cc1cc2c(s1)Nc1ccccc1N=C2N1CCN(C)CC1 [Olanzapine (Zyprexa), Olanzapine] , system HCT116 (p53+) (Colorectal Carcinoma): what viability was measured? 124

Entry CC(=O)NC[C@H]1CN(c2ccc(N3CCOCC3)c(F)c2)C(=O)O1 [Linezolid (Zyvox), Linezolid] , system HCT116 (p53+) (Colorectal Carcinoma): what viability was measured? 107

Entry Cc1ccc2c(Cl)cc(Cl)c(O)c2n1 , system HCT116 (p53+) (Colorectal Carcinoma): what viability was measured? 38.5

###

- System: PC3 (p53−) (Prostate Adenocarcinoma)
- PROCEDURE_TEXT: Cell viability analysis, prostate cancer PC3
- Assay type: cell-based, human
- CONDITIONS: Homo sapiens, 72 h, read-out: cell viability (survival rate), PC3, drug 10 μM, 72 hours, WST-1, OD450 nm
Counter-ions that a name gives are not always drawn.
ENDPOINT_LABEL: viability at 10 µM (%)
Could you give me the number in %? Just the number is fine.

viability at 10 µM for COc1cc(NC(C)CCCN)c2ncccc2c1 (centres unmarked) [Primaquine Diphosphate] ? 60.3

viability at 10 µM for O=C1OC(CN2CCOCC2)CN1/N=C/c1ccc([N+](=O)[O-])o1 (centres unmarked) [Furaltadone HCl] ? 99.2

viability at 10 µM for CN(C)[C@@H]1C(O)=C(C(N)=O)C(=O)[C@@]2(O)C(O)=C3C(=O)c4c(O)cccc4[C@@](C)(O)[C@H]3C[C@@H]12 [Tetracycline HCl] ? 42.9

viability at 10 µM for C=C1[C@H](CO)[C@@H](O)C[C@@H]1n1cnc2c(=O)[nH]c(N)nc21 [Entecavir hydrate] ? 81.2

viability at 10 µM for CC(=O)O[C@]1(C(C)=O)CC[C@H]2[C@@H]3C=C(C)C4=CC(=O)CC[C@]4(C)[C@H]3CC[C@@]21C [Megestrol Acetate] ? 80.3

viability at 10 µM for C=CC1=C(C(=O)O)N2C(=O)[C@@H](NC(=O)/C(=N\O)c3csc(N)n3)[C@H]2SC1 ? 135

viability at 10 µM for CCS(=O)(=O)CCn1c([N+](=O)[O-])cnc1C ? 85.6

viability at 10 µM for CC(=O)Oc1cc(C(F)(F)F)ccc1C(=O)O ? 87.5

viability at 10 µM for Cc1ncc([N+](=O)[O-])n1CC(C)O (centres unmarked) ? 81.6

viability at 10 µM for CO[C@@]1(NC(=O)C(C(=O)O)c2ccc(O)cc2)C(=O)N2C(C(=O)O)=C(CSc3nnnn3C)CO[C@@H]21 (some centres unmarked) [Moxalactam Disodium] ? 95

viability at 10 µM for Nc1ccc(S(=O)(=O)Nc2ccccn2)cc1 ? 108

viability at 10 µM for CC[C@H]1OC(=O)[C@H](C)[C@@H](O[C@H]2C[C@@](C)(OC)[C@@H](O)[C@H](C)O2)[C@H](C)[C@@H](O[C@@H]2O[C@H](C)C[C@H](N(C)C)[C@H]2O)[C@](C)(O)C[C@@H](C)C(=O)[C@H](C)[C@@H](O)[C@]1(C)O [Erythromycin (E-Mycin), Erythromycin] ? 86

viability at 10 µM for NC[C@@H]1O[C@H](O[C@H]2[C@@H](O)[C@H](O[C@@H]3[C@@H](O)[C@H](N)C[C@H](N)[C@H]3O[C@H]3O[C@H](CO)[C@@H](O)[C@H](O)[C@H]3N)O[C@@H]2CO)[C@H](N)[C@@H](O)[C@@H]1O [Paromomycin Sulfate] ? 146

viability at 10 µM for O=C(N/N=C/c1ccc([N+](=O)[O-])o1)c1ccc(O)cc1 [Nifuroxazide] ? 92

###

- Test system: AsPC-1
- PROCEDURE_TEXT: Cell viability analysis, pancreatic cancer AsPC-1
- Format: cell-based, human
- CONDITIONS: Homo sapiens, ASPC1, 72 h; AsPC-1; repeated experiment; read-out: The results of antibiotic drug inhibiting cancer cell lines (cell viability analysis), AsPC-1
Structures can show the parent of a compound that is named as a salt.
Output TRUE for records whose viability at 10 µM is lower than 60%, FALSE for records at or above 60%.

Strictly below 60%: is that where viability at 10 µM of CC[C@@H]([C@H](C)O)n1ncn(-c2ccc(N3CCN(c4ccc(OC[C@@H]5CO[C@@](Cn6cncn6)(c6ccc(F)cc6F)C5)cc4)CC3)cc2)c1=O sits? TRUE

Strictly below 60%: is that where viability at 10 µM of NC(=O)N/N=C/c1ccc([N+](=O)[O-])o1 sits? FALSE

Strictly below 60%: is that where viability at 10 µM of Cc1ccc2c(Cl)cc(Cl)c(O)c2n1 sits? FALSE

Strictly below 60%: is that where viability at 10 µM of CC(C)/N=c1\cc2n(-c3ccc(Cl)cc3)c3ccccc3nc-2cc1Nc1ccc(Cl)cc1 sits? FALSE

Strictly below 60%: is that where viability at 10 µM of CN(C)CCC=C1c2ccccc2CCc2ccccc21 [Amitriptyline HCl] sits? FALSE

Strictly below 60%: is that where viability at 10 µM of COC(=O)Nc1nc2ccc([S+]([O-])c3ccccc3)cc2[nH]1 (stereo not drawn) sits? TRUE

###

Kindly supply the reported The results of antibiotic drug inhibiting cancer cell lines (cell viability analysis), BCC values for the records listed here.
- Tested on: BCC (basal cell carcinoma)
- PROCEDURE_TEXT: Cell viability analysis, skin cancer BCC
- Type: cell-based, human
- CONDITIONS: BCC; repeated experiment
Number only, please.

The results of antibiotic drug inhibiting cancer cell lines (cell viability analysis), BCC for CN[C@H](CC(C)C)C(=O)N[C@H]1C(=O)N[C@@H](CC(N)=O)C(=O)N[C@H]2C(=O)N[C@H]3C(=O)N[C@H](C(=O)N[C@H](C(=O)O)c4cc(O)cc(O)c4-c4cc3ccc4O)[C@H](O)c3ccc(c(Cl)c3)Oc3cc2cc(c3O[C@@H]2O[C@H](CO)[C@@H](O)[C@H](O)[C@H]2O[C@H]2C[C@](C)(N)[C@H](O)[C@H](C)O2)Oc2ccc(cc2Cl)[C@H]1O.Cl [Vancomycin HCl (Vancocin)] ? 96.78

The results of antibiotic drug inhibiting cancer cell lines (cell viability analysis), BCC for Cc1onc(-c2ccccc2Cl)c1C(=O)N[C@@H]1C(=O)N2[C@@H]1SC(C)(C)[C@@H]2C(=O)[O-].[Na+] [Cloxacillin sodium (Cloxacap)] ? 116.6

The results of antibiotic drug inhibiting cancer cell lines (cell viability analysis), BCC for CCCCCCCCCCCCCCCC[N+](C)(C)C.[Br-] [Cetrimonium Bromide] ? 23.59

The results of antibiotic drug inhibiting cancer cell lines (cell viability analysis), BCC for COC(=O)Nc1nc2cc(C(=O)c3ccc(F)cc3)ccc2[nH]1 [Flubendazole (Flutelmium)] ? 31.79

###

- Tested on: MDA-MB-231 (Mammary Gland, Adenocarcinoma)
- PROCEDURE_TEXT: Cell viability analysis, breast cancer MDA-MB-231
- Assay type: cell-based, human
- CONDITIONS: Homo sapiens, MDA-MB-231, 72 h, read-out: The results of antibiotic drug inhibiting cancer cell lines (cell viability analysis), MDA-MB231
Counter-ions that a name gives are not always drawn.
Kindly supply the reported viability at 10 µM values for the records listed here.
Could you give me the number in %? Just the number is fine.

viability at 10 µM for CC(C)(C)C(=O)OCOP(=O)(COCCn1cnc2c(N)ncnc21)OCOC(=O)C(C)(C)C [Adefovir Dipivoxil (Preveon, Hepsera), Adefovir Dipivoxil] ? 71.9

viability at 10 µM for CN(C)[C@@H]1C(O)=C(C(N)=O)C(=O)[C@@]2(O)C(O)=C3C(=O)c4c(O)cccc4[C@@](C)(O)[C@H]3C[C@@H]12 [Tetracycline HCl] ? 88.1

viability at 10 µM for O=c1n(CCCN2CCN(c3cccc(Cl)c3)CC2)nc2ccccn12 [Trazodone hydrochloride (Desyrel), Trazodone hydrochloride] ? 87.8

viability at 10 µM for Cc1ncc([N+](=O)[O-])n1CCO [Metronidazole (Flagyl), Metronidazole] ? 93.3

viability at 10 µM for CN(C)CCCN1c2ccccc2CCc2ccc(Cl)cc21 [Clomipramine hydrochloride (Anafranil), Clomipramine hydrochloride] ? 117

viability at 10 µM for CCC[S+]([O-])c1ccc2[nH]c(NC(=O)OC)nc2c1 (stereo not drawn) [Albendazole Oxide (Ricobendazole), Albendazole Oxide] ? 81.1
